- measured-target: P450 1A2 over P450 1A1 (Homo sapiens, UniProt P05177)
- Sequence (P05177 whole entry): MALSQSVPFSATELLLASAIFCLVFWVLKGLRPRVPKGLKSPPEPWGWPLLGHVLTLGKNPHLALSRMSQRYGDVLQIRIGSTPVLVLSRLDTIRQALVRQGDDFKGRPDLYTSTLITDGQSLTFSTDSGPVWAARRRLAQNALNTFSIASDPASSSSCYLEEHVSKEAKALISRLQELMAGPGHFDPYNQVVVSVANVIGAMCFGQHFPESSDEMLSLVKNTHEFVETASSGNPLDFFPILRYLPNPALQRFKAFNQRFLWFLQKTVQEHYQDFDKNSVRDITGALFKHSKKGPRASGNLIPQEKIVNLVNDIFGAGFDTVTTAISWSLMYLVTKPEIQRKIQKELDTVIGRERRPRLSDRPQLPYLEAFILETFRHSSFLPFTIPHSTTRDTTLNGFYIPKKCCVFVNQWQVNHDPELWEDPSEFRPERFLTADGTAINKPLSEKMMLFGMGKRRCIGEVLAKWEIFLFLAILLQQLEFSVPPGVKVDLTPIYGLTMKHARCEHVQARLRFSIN
- method-summary: P450 1A2-dependent demethylation of resorufin methyl ether
- Assay type: biochemical
- experimental-setup: human, recombinant human CYP1A1 and CYP1A2 supersomes, pH 7.6
value-type: selectivity ratio at 6 min
Enter the number alone.

Consider the compound shown here: `C#Cc1ccccc1-c1cc(=O)c2ccccc2o1` What is its recorded selectivity ratio at 6 min?
7.2

###

- measured-target: UniProt P04798
- Sequence (P04798 whole entry): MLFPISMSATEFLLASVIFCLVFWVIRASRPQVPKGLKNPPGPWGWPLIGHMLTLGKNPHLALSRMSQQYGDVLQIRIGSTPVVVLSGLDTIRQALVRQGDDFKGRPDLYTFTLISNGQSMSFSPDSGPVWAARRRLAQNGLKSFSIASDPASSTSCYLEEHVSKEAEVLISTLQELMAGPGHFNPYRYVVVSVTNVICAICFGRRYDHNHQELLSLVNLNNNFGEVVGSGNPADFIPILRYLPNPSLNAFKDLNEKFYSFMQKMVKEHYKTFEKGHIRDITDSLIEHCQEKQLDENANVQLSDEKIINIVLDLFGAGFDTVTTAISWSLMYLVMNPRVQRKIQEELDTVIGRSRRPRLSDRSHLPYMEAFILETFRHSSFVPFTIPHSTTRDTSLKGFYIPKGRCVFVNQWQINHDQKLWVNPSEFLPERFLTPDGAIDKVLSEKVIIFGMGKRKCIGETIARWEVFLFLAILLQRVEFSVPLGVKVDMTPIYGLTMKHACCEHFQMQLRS
- method-summary: Time-dependent inhibition kinetics of P450 1A1
- Type: biochemical
In plain terms, low Ki, meaning strictly below 60 nM, gives Met, and everything else gives Not met.

Criterion: Ki strictly below 60 nM. Is it met by `C#Cc1cccc(-c2cc(=O)c3ccccc3o2)c1` ?
Met

Criterion: Ki strictly below 60 nM. Is it met by `C#Cc1cccc2oc(-c3ccccc3)cc(=O)c12` ?
Not met

Criterion: Ki strictly below 60 nM. Is it met by `C#Cc1ccc2oc(-c3ccccc3)cc(=O)c2c1` ?
Met

Criterion: Ki strictly below 60 nM. Is it met by `C#Cc1ccc2c(=O)cc(-c3ccccc3)oc2c1` ?
Met

Criterion: Ki strictly below 60 nM. Is it met by `C#Cc1ccc(-c2cc(=O)c3ccccc3o2)cc1` ?
Met
